Target: KRAS G12V (amino acids 1-169) (Homo sapiens, UniProt P01116, G12V)
Construct: made in house; host or cells: E. coli
Sequence (P01116 with tags, fused parts or gaps isoform P01116-2 G12V): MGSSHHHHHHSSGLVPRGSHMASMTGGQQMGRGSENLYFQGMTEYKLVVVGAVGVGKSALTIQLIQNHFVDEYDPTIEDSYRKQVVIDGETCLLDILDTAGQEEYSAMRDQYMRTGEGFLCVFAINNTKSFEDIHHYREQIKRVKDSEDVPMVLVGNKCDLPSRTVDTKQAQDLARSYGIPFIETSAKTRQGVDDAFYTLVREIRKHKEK
Experiment: SOS-catalyzed nucleotide exchange assay (Procedure B, BODIPY FL GDP displacement), KRAS G12V
Assay type: biochemical
Details: read-out: KRAS G12V GNE IC50
pIC50: −log10 of the molar value.
Param threshold (7) applies to pIC50; output true when value >= threshold, false when value < threshold.

Consider the worked cases shown below.
C=CC1CCc2cc3[nH]ncc3c(-c3nccc4c3sc3nc(OC[C@@]56CCCN5C[C@H](F)C6)nc(N5CCOC[C@@](C)(O)C5)c34)c21 (single isomer, unassigned) | true
Cc1cc2[nH]ncc2c(-c2nccc3c2sc2nc(OC[C@@]45CCCN4C[C@H](F)C5)nc(N)c23)c1C(F)(F)F | false
Cc1cc2[nH]ncc2c(-c2nccn3c2c(F)c2nc(OC[C@@]45CCCN4C[C@H](F)C5)nc(N4CCOC[C@@](C)(O)C4)c23)c1C1CC1 | true
CCC1CC(F)(F)c2cc3[nH]ncc3c(-c3nccc4c3sc3nc(OC[C@@]56CCCN5C[C@H](F)C6)nc(N5CCOC[C@@](C)(O)C5)c34)c21 (stereo partly drawn) | true
C[C@@]1(O)COCCN(c2nc(OC[C@@]34CCCN3C[C@H](F)C4)nc3sc4c(-c5c(C6=CCOC6)c(Cl)cc6[nH]ncc56)nccc4c23)C1 | false

Does the reported pIC50 for C[C@@]1(O)COCCN(c2nc(OC[C@@]34CCCN3C[C@H](F)C4)nc3sc4c(-c5c(C6(F)CC6)c(C6CC6)cc6[nH]ncc56)nccc4c23)C1 fall at or above the 7 mark? true

Is the recorded value of pIC50 equal to or greater than 7 for this compound? CC1c2c(cc3[nH]ncc3c2-c2nccc3c2sc2nc(OC[C@@]45CCCN4C[C@H](F)C5)nc(N4CCOC[C@@](C)(O)C4)c23)CC1(F)F (single isomer, unassigned) true
